Field: Plant response rating, Giant foxtail. Provide a value for each of the compounds that follow.
System: giant foxtail (Setaria faberii)
Assay: Test B pre-/postemergence
Assay type: in vivo
Design: key: 0 is no effect; 10 is complete control
Conditions: Rate 500 g/ha, Preemergence
Answers are plain numbers.

Below, 4 compounds whose answers are already recorded.
| chemical.structure | study.target | Plant response rating, Giant foxtail |
| --- | --- | --- |
| Cc1cnc(-n2ccc(C(F)(F)F)n2)nc1C(=O)c1ccc(C(F)(F)F)cc1 | giant foxtail (Setaria faberii) | 0 |
| Cc1cnc(-c2ccc(C(F)(F)F)cc2)nc1Cn1cc(I)cn1 | giant foxtail (Setaria faberii) | 9 |
| Cc1cnc(-c2ccc(C(F)(F)F)cc2)nc1C(=O)c1cccc(C(F)(F)F)c1 | giant foxtail (Setaria faberii) | 10 |
| Cc1cnc(-n2cnc(C(F)(F)F)c2)nc1C(=O)c1cccc(OC(F)(F)F)c1 | giant foxtail (Setaria faberii) | 8 |

For each entry beneath this line, provide reported Plant response rating, Giant foxtail.
1. Cc1cnc(-c2ccc(C(F)(F)F)cc2)nc1Cn1ccc(C(F)(F)C(F)(F)F)n1
2. Cc1cnc(-c2ccc(C(F)(F)F)cc2)nc1Cn1cc(Br)cn1

1: 9; 2: 10

----------
Test system: purple nutsedge (Cyperus rotundus)
Assay: Test B pre-/postemergence
Assay type: in vivo
Conditions: Rate 250 g/ha, Postemergence
Procedure: […] At the same time, these crop and weed species were also treated with postemergence applications of test chemicals formulated in the same manner. […] Treated plants and controls were maintained in a greenhouse for twelve to sixteen days, after which all species were compared to controls and visually evaluated. […]
metric.name: Plant response rating, Nutsedge

Below, 6 molecules whose answers are already recorded.
| chemical.structure | study.target | Plant response rating, Nutsedge |
| --- | --- | --- |
| CCc1cnc(-n2cnc(C(F)(F)F)n2)nc1Cc1cccc(OC(F)(F)F)c1 | purple nutsedge (Cyperus rotundus) | 2 |
| Cc1cnc(-c2ccc(C(F)(F)F)cc2)nc1Cn1cc(Br)cn1 | purple nutsedge (Cyperus rotundus) | 0 |
| Cc1cnc(-n2ccc(C(F)(F)C(F)(F)F)n2)nc1C(=O)c1cccc(C(F)(F)F)c1 | purple nutsedge (Cyperus rotundus) | 0 |
| Cc1cnc(-n2ccc(C(F)(F)F)n2)nc1C(=O)c1cccc(OC(F)(F)F)c1 | purple nutsedge (Cyperus rotundus) | 1 |
| COc1cnc(-n2ccc(C(F)(F)F)n2)nc1C(=O)c1cccc(C(F)(F)F)c1 | purple nutsedge (Cyperus rotundus) | 0 |
| Cc1cnc(-n2cnc(C(F)(F)F)c2)nc1C(=O)c1cccc(C(F)(F)F)c1 | purple nutsedge (Cyperus rotundus) | 0 |

For each entry beneath this line, provide reported Plant response rating, Nutsedge.
1. Cc1cnc(-n2cnc(C(F)(F)F)n2)nc1C(=O)c1cccc(OC(F)(F)F)c1
2. Cc1cnc(-c2ccc(C(F)(F)F)cc2)nc1Cn1cc(I)cn1
3. Cc1cnc(-c2ccc(C(F)(F)F)cc2)nc1C(=O)c1ccc(C(F)(F)F)cc1
4. Cc1cnc(-c2ccc(C(F)(F)F)cc2)nc1C(=O)c1cccc(C(F)(F)F)c1

[0, 0, 0, 2]

----------
Test system: sugar beet (Beta vulgaris)
Test: Test B pre-/postemergence
Type: in vivo
Details: Rate 62 g/ha, Postemergence
Mark 1 for reported Plant response rating, Sugarbeets of 3 or greater; mark 0 for anything smaller.

Worked examples follow.
| compound | cat |
| --- | --- |
| Cc1cnc(-c2ccc(C(F)(F)F)cc2)nc1Cn1cnc(C(F)(F)F)c1 | 1 |
| Cc1cnc(-c2ccc(Cl)cc2F)nc1Cc1cccc(C(F)(F)F)c1 | 1 |
| CCc1cnc(-n2ccc(C(F)(F)F)n2)nc1Cc1cccc(C(F)(F)F)c1 | 1 |
| Cc1cnc(-c2ccc(C(F)(F)F)cc2)nc1C(C)c1cccc(C(F)(F)F)c1 (racemic) | 0 |

Evaluate "Cc1cnc(-c2ccc(C(F)(F)F)cc2)nc1Cn1ccc(C(F)(F)F)n1" : Plant response rating, Sugarbeets at minimum 3?
1
